# Test system: Escherichia coli TOP10;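 note: peptides expressed intracellularly from a pBAD plasmid library in pooled LB shake-flask culture, induced with 0.3% L-arabinose, DNA abundance read by NGS, three biological replicates, DESeq2 with apeglm shrinkage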
# METHOD: shrunken log2 fold change of peptide-encoding DNA abundance (4.5 h post-induction vs induction); higher = less antimicrobial activity (less host growth inhibition)
# CONDITION_DESCRIPTION: time post-induction: 4.5 h; library: site-saturation at positions 5, 18, 19, 20
Hi there, I'd appreciate the recorded shrunken log2 fold change for every entry that follows.
One number for each entry.

{"columns": ["MACROMOLECULE_SEQUENCE", "SYSTEM_UNDER_TEST", "ASSAY_RESULT"],
 "data": [
  ["RRIRSRPPRLPRPRPRPMQYPRP", "Escherichia coli TOP10", -0.289],
  ["RRIRKRPPRLPRPRPRPKEQPRP", "Escherichia coli TOP10", -0.0322],
  ["RRIRPRPPRLPRPRPRPGRYPRP", "Escherichia coli TOP10", 0.37],
  ["RRIRPRPPRLPRPRPRPLHAPRP", "Escherichia coli TOP10", 0.282]
]}

Respectfully, I request shrunken log2 fold change for each entry included below.
1. RRIRYRPPRLPRPRPRPRSSPRP
2. RRIRIRPPRLPRPRPRPYTHPRP
3. RRIRQRPPRLPRPRPRPYCSPRP
4. RRIRVRPPRLPRPRPRPDGGPRP
5. RRIRMRPPRLPRPRPRPSNNPRP
6. RRIRNRPPRLPRPRPRPFIGPRP

1. 0.069
2. -1.09
3. -0.132
4. -0.0572
5. -0.0389
6. -0.0677

Respectfully, I request shrunken log2 fold change for each entry included below.
1. RRIRTRPPRLPRPRPRPTNGPRP
2. RRIRSRPPRLPRPRPRPYAIPRP
3. RRIRIRPPRLPRPRPRPELRPRP
4. RRIRARPPRLPRPRPRPTHQPRP

1. -0.0801
2. -0.228
3. 0.0361
4. 0.528

Respectfully, I request shrunken log2 fold change for each entry included below.
1. RRIRVRPPRLPRPRPRPIRYPRP
2. RRIRMRPPRLPRPRPRPAHDPRP
3. RRIRQRPPRLPRPRPRPVIRPRP
4. RRIRWRPPRLPRPRPRPNNKPRP
5. RRIRLRPPRLPRPRPRPNVWPRP
6. RRIRFRPPRLPRPRPRPTFYPRP
7. RRIRCRPPRLPRPRPRPPPYPRP

1. 0.146
2. 0.673
3. -0.406
4. -0.392
5. 0.346
6. -0.366
7. 0.511

Respectfully, I request shrunken log2 fold change for each entry included below.
1. RRIRKRPPRLPRPRPRPILVPRP
2. RRIRSRPPRLPRPRPRPPIPPRP
3. RRIRPRPPRLPRPRPRPDHCPRP
4. RRIRYRPPRLPRPRPRPNQFPRP
5. RRIRYRPPRLPRPRPRPYNTPRP

1: 0.0199; 2: 0.0379; 3: -0.199; 4: -0.533; 5: -1.88

Respectfully, I request shrunken log2 fold change for each entry included below.
1. RRIRWRPPRLPRPRPRPPQQPRP
2. RRIRHRPPRLPRPRPRPWCEPRP
3. RRIRGRPPRLPRPRPRPRRTPRP
4. RRIRGRPPRLPRPRPRPMHEPRP
5. RRIRVRPPRLPRPRPRPDFFPRP
6. RRIRCRPPRLPRPRPRPDYHPRP

1: 0.163; 2: 0.0456; 3: 0.67; 4: 0.928; 5: -0.0229; 6: -0.903

Cited source: the supplement of paper PMC9112550
